Molecular target: Cathepsin S (Homo sapiens, UniProt P25774)
Sequence (P25774 whole entry): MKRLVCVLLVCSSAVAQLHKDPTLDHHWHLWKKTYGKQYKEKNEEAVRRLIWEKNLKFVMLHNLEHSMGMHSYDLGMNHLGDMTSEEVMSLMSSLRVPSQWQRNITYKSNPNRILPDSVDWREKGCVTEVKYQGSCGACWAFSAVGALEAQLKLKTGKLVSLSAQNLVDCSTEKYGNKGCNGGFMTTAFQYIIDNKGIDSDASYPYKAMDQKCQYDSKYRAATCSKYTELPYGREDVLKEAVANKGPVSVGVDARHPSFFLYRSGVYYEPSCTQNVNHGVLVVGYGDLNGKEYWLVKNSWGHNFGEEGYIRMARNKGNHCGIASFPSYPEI
Test: Inhibition of recombinant human cathepsin S
pIC50: −log10 of the molar value.
assayEndpoint: pIC50

Completed entries (count: 3):
smilesStr: O=C(N[C@@H](Cc1ccccc1)C(=O)N[C@@H]1C(=O)N[C@H]1OCc1ccccc1)OCc1ccccc1
pIC50: < 5.60
--
smilesStr: CC(C)(C)O[C@@H]1NC(=O)[C@H]1NC(=O)[C@H](Cc1ccccc1)NC(=O)OCc1ccccc1
pIC50: < 5.60
--
smilesStr: O=C(N[C@@H](Cc1ccccc1)C(=O)N[C@@H]1CNC1=O)OCc1ccccc1
pIC50: < 5.30

Please examine the following record next.
# get_value(readout= pIC50, system= Cathepsin S (Homo sapiens, UniProt P25774)) for CC(C)CO[C@@H]1NC(=O)[C@H]1NC(=O)[C@H](Cc1ccccc1)NC(=O)OCc1ccccc1
< 5.60

Reference for the values: ChEMBL document CHEMBL1136415
